- System: Escherichia coli TOP10
- protocol.details: shrunken log2 fold change of peptide-encoding DNA abundance (4.5 h post-induction vs induction); higher = less antimicrobial activity (less host growth inhibition)
- test.conditions: time post-induction: 4.5 h; library: site-saturation at positions 5, 18, 19, 20
Can you tell me shrunken log2 fold change for the items I'm about to list?
Reply briefly: the number, and no unit.

Prompt line: Answer with reported shrunken log2 fold change of RRIRGRPPRLPRPRPRPVSCPRP
Response line: 0.885

Prompt line: Answer with reported shrunken log2 fold change of RRIRTRPPRLPRPRPRPEKTPRP
Response line: 0.051

Prompt line: Answer with reported shrunken log2 fold change of RRIRFRPPRLPRPRPRPKDAPRP
Response line: 0.141

====

- System: Escherichia coli TOP10
- protocol.details: shrunken log2 fold change of peptide-encoding DNA abundance (4.5 h post-induction vs induction); higher = less antimicrobial activity (less host growth inhibition)
- test.conditions: time post-induction: 4.5 h; library: site-saturation at positions 5, 18, 19, 20
Binning rule for recorded shrunken log2 fold change: group 1 = under -0.3, group 2 = from -0.3 up to -0.001, group 3 = -0.001 and over

Prompt line: Please report the category associated with RRIRFRPPRLPRPRPRPVLCPRP , nothing else.
Response line: group 2

Prompt line: Please report the category associated with RRIRTRPPRLPRPRPRPKFHPRP , nothing else.
Response line: group 1

Prompt line: Please report the category associated with RRIRQRPPRLPRPRPRPLSDPRP , nothing else.
Response line: group 2

Prompt line: Please report the category associated with RRIRKRPPRLPRPRPRPVATPRP , nothing else.
Response line: group 3

Prompt line: Please report the category associated with RRIRKRPPRLPRPRPRPYRKPRP , nothing else.
Response line: group 3

Prompt line: Please report the category associated with RRIRLRPPRLPRPRPRPIGSPRP , nothing else.
Response line: group 2

Prompt line: Please report the category associated with RRIRNRPPRLPRPRPRPIKDPRP , nothing else.
Response line: group 1

Prompt line: Please report the category associated with RRIRLRPPRLPRPRPRPLDIPRP , nothing else.
Response line: group 2

Prompt line: Please report the category associated with RRIRLRPPRLPRPRPRPRVKPRP , nothing else.
Response line: group 2

Prompt line: Please report the category associated with RRIRMRPPRLPRPRPRPCYQPRP , nothing else.
Response line: group 3

Prompt line: Please report the category associated with RRIRLRPPRLPRPRPRPFHNPRP , nothing else.
Response line: group 1

Prompt line: Please report the category associated with RRIRERPPRLPRPRPRPFDQPRP , nothing else.
Response line: group 2

Prompt line: Please report the category associated with RRIRMRPPRLPRPRPRPALYPRP , nothing else.
Response line: group 3

Prompt line: Please report the category associated with RRIRIRPPRLPRPRPRPRNCPRP , nothing else.
Response line: group 2

Prompt line: Please report the category associated with RRIRVRPPRLPRPRPRPYTLPRP , nothing else.
Response line: group 1

Prompt line: Please report the category associated with RRIRSRPPRLPRPRPRPYEEPRP , nothing else.
Response line: group 1

Prompt line: Please report the category associated with RRIRCRPPRLPRPRPRPDQDPRP , nothing else.
Response line: group 3

Prompt line: Please report the category associated with RRIRIRPPRLPRPRPRPQMNPRP , nothing else.
Response line: group 1

Prompt line: Please report the category associated with RRIRWRPPRLPRPRPRPFIPPRP , nothing else.
Response line: group 1

Prompt line: Please report the category associated with RRIRLRPPRLPRPRPRPGQAPRP , nothing else.
Response line: group 3

Prompt line: Please report the category associated with RRIRDRPPRLPRPRPRPTDWPRP , nothing else.
Response line: group 3

Prompt line: Please report the category associated with RRIRNRPPRLPRPRPRPNNHPRP , nothing else.
Response line: group 1

Prompt line: Please report the category associated with RRIRFRPPRLPRPRPRPNFVPRP , nothing else.
Response line: group 2

Prompt line: Please report the category associated with RRIRLRPPRLPRPRPRPLSMPRP , nothing else.
Response line: group 2

Prompt line: Please report the category associated with RRIRIRPPRLPRPRPRPGRPPRP , nothing else.
Response line: group 3

Prompt line: Please report the category associated with RRIRDRPPRLPRPRPRPRCCPRP , nothing else.
Response line: group 3

Prompt line: Please report the category associated with RRIRCRPPRLPRPRPRPKHTPRP , nothing else.
Response line: group 2

Prompt line: Please report the category associated with RRIRHRPPRLPRPRPRPKMGPRP , nothing else.
Response line: group 2

Prompt line: Please report the category associated with RRIRMRPPRLPRPRPRPSIAPRP , nothing else.
Response line: group 2

Prompt line: Please report the category associated with RRIRVRPPRLPRPRPRPKLTPRP , nothing else.
Response line: group 2

Prompt line: Please report the category associated with RRIRPRPPRLPRPRPRPELQPRP , nothing else.
Response line: group 3

Prompt line: Please report the category associated with RRIRRRPPRLPRPRPRPINDPRP , nothing else.
Response line: group 2

Prompt line: Please report the category associated with RRIRTRPPRLPRPRPRPECSPRP , nothing else.
Response line: group 3

Prompt line: Please report the category associated with RRIRGRPPRLPRPRPRPCVAPRP , nothing else.
Response line: group 3

Prompt line: Please report the category associated with RRIRMRPPRLPRPRPRPVILPRP , nothing else.
Response line: group 1

Prompt line: Please report the category associated with RRIRTRPPRLPRPRPRPYMAPRP , nothing else.
Response line: group 1

Prompt line: Please report the category associated with RRIRIRPPRLPRPRPRPMITPRP , nothing else.
Response line: group 1

Prompt line: Please report the category associated with RRIRWRPPRLPRPRPRPYPMPRP , nothing else.
Response line: group 2

Prompt line: Please report the category associated with RRIRWRPPRLPRPRPRPTLWPRP , nothing else.
Response line: group 3

Prompt line: Please report the category associated with RRIRLRPPRLPRPRPRPDRAPRP , nothing else.
Response line: group 3

Prompt line: Please report the category associated with RRIRHRPPRLPRPRPRPDSCPRP , nothing else.
Response line: group 2

Prompt line: Please report the category associated with RRIRSRPPRLPRPRPRPRVRPRP , nothing else.
Response line: group 3

Prompt line: Please report the category associated with RRIRVRPPRLPRPRPRPHLRPRP , nothing else.
Response line: group 3

Prompt line: Please report the category associated with RRIRFRPPRLPRPRPRPWMLPRP , nothing else.
Response line: group 2

Prompt line: Please report the category associated with RRIRIRPPRLPRPRPRPLERPRP , nothing else.
Response line: group 3

Prompt line: Please report the category associated with RRIRKRPPRLPRPRPRPSTSPRP , nothing else.
Response line: group 2

Prompt line: Please report the category associated with RRIRLRPPRLPRPRPRPMLLPRP , nothing else.
Response line: group 1

Prompt line: Please report the category associated with RRIRHRPPRLPRPRPRPTKTPRP , nothing else.
Response line: group 2

Prompt line: Please report the category associated with RRIRSRPPRLPRPRPRPQCWPRP , nothing else.
Response line: group 3

Prompt line: Please report the category associated with RRIRTRPPRLPRPRPRPYHNPRP , nothing else.
Response line: group 1

Prompt line: Please report the category associated with RRIRLRPPRLPRPRPRPLLLPRP , nothing else.
Response line: group 2

Prompt line: Please report the category associated with RRIRRRPPRLPRPRPRPKCNPRP , nothing else.
Response line: group 2

Prompt line: Please report the category associated with RRIRMRPPRLPRPRPRPLERPRP , nothing else.
Response line: group 3

Prompt line: Please report the category associated with RRIRPRPPRLPRPRPRPDKSPRP , nothing else.
Response line: group 1

Prompt line: Please report the category associated with RRIRQRPPRLPRPRPRPNMIPRP , nothing else.
Response line: group 2

Prompt line: Please report the category associated with RRIRERPPRLPRPRPRPNMTPRP , nothing else.
Response line: group 2

Prompt line: Please report the category associated with RRIRNRPPRLPRPRPRPASEPRP , nothing else.
Response line: group 2

====

- Test system: Escherichia coli TOP10;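 note: peptides expressed intracellularly from a pBAD plasmid library in pooled LB shake-flask culture, induced with 0.3% L-arabinose, DNA abundance read by NGS, three biological replicates, DESeq2 with apeglm shrinkage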
- protocol.details: shrunken log2 fold change of peptide-encoding DNA abundance (4.5 h post-induction vs induction); higher = less antimicrobial activity (less host growth inhibition)
- test.conditions: time post-induction: 4.5 h; library: site-saturation at positions 5, 18, 19, 20
shrunken log2 fold change below -0.2 gives 0.0; shrunken log2 fold change at or above it gives 1.0.

Prompt line: Record RRIRERPPRLPRPRPRPTLFPRP ; criterion: shrunken log2 fold change no lower than -0.2. Met?
Response line: 1.0

Prompt line: Record RRIRYRPPRLPRPRPRPGIRPRP ; criterion: shrunken log2 fold change no lower than -0.2. Met?
Response line: 1.0

Prompt line: Record RRIRQRPPRLPRPRPRPVIYPRP ; criterion: shrunken log2 fold change no lower than -0.2. Met?
Response line: 1.0

Prompt line: Record RRIRHRPPRLPRPRPRPMSAPRP ; criterion: shrunken log2 fold change no lower than -0.2. Met?
Response line: 0.0

Prompt line: Record RRIRMRPPRLPRPRPRPYNFPRP ; criterion: shrunken log2 fold change no lower than -0.2. Met?
Response line: 0.0

Prompt line: Record RRIRVRPPRLPRPRPRPVPNPRP ; criterion: shrunken log2 fold change no lower than -0.2. Met?
Response line: 1.0

Prompt line: Record RRIRPRPPRLPRPRPRPIERPRP ; criterion: shrunken log2 fold change no lower than -0.2. Met?
Response line: 1.0

Prompt line: Record RRIRTRPPRLPRPRPRPASMPRP ; criterion: shrunken log2 fold change no lower than -0.2. Met?
Response line: 0.0

Prompt line: Record RRIRNRPPRLPRPRPRPHGNPRP ; criterion: shrunken log2 fold change no lower than -0.2. Met?
Response line: 1.0

Prompt line: Record RRIRKRPPRLPRPRPRPDMTPRP ; criterion: shrunken log2 fold change no lower than -0.2. Met?
Response line: 1.0

Prompt line: Record RRIRKRPPRLPRPRPRPIGYPRP ; criterion: shrunken log2 fold change no lower than -0.2. Met?
Response line: 1.0

meta.source: the supplement of paper PMC9112550
